Target: PU.1 (IVT) (UniProt P17947 1-270)
Experiment: PBM; 20 mM HEPES pH 7.9, 100 mM NaCl, 1 mM DTT, 0.2 mg/mL BSA, 0.02% Triton X-100, 2% milk, 0.4 mg/mL salmon testes DNA, 1 h; temperature not stated
Details: protein: ivt; blunt
Overview of recorded binding signal for various binders

Binder: PBM_PU1_IRF8_v2_30 (dsDNA) DNA 1: GCCTAGCACATTTTAAGGAAGTGAAACCCGTGCTAGGTCTTGATTCGCTTGACGCTGCTG DNA 2: CAGCAGCGTCAAGCGAATCAAGACCTAGCACGGGTTTCACTTCCTTAAAATGTGCTAGGC
binding signal, z-score: 5.72
//
Binder: PBM_PU1_IRF8_v2_23 (dsDNA) DNA 1: GCCTAGCACCAAATGAGGAAGTGAGACTTGTGCTAGGTCTTGATTCGCTTGACGCTGCTG DNA 2: CAGCAGCGTCAAGCGAATCAAGACCTAGCACAAGTCTCACTTCCTCATTTGGTGCTAGGC
binding signal, z-score: 7.69
//
Binder: PBM_PU1_IRF8_v2_4 (dsDNA) DNA 1: GCCTAGCACGAAAACAGGAAGTGGACAACGTGCTAGGTCTTGATTCGCTTGACGCTGCTG DNA 2: CAGCAGCGTCAAGCGAATCAAGACCTAGCACGTTGTCCACTTCCTGTTTTCGTGCTAGGC
binding signal, z-score: 7.4
//
Binder: PBM_PU1_IRF8_v2_24 (dsDNA) DNA 1: GCCTAGCACATAAGGAGGAAGTGAGACAGGTGCTAGGTCTTGATTCGCTTGACGCTGCTG DNA 2: CAGCAGCGTCAAGCGAATCAAGACCTAGCACCTGTCTCACTTCCTCCTTATGTGCTAGGC
binding signal, z-score: 4.54
